# PROCEDURE_DETAILS: Primary qHTS for inhibitors of SARS-S pseudo-typed particle cell entry (AID 1479145); further: nearly all actives have a fitted effect of over 45% in size
# ASSAY_CONTEXT: SARS-S pseudotyped particle cell entry, luciferase reporter; series mostly up to 57.1 µM
Records with an inconclusive call do not appear. Active and inactive are the calls of the source. The call rests on the fitted dose curve.
READOUT_TYPE: outcome

Below are worked cases with known answers.
> print(dat)
                                   compound     value
1  CCc1c(C)[nH]c2c1C(=O)C(CN1CCOCC1)CC2 (configuration not stated)  inactive
2  COC(=O)c1cncn1C(C)c1ccccc1 (configuration not stated)  inactive
3                   CC1=NN(c2ccccc2)C(=O)C1  inactive
4  CCCCC(CC)COC(=O)/C=C/c1ccc(OC)cc1 (configuration not stated)  inactive
5  O=C(Nc1cccc(C2=NCCN2)c1)Nc1cccc(C2=NCCN2)c1  inactive
6  [O-][n+]1cccc(/C(Cl)=N/OC[C@@H](O)CN2CCCCC2)c1  inactive
7                               COc1ccccc1O  inactive
8                        C[N+](C)(C)CC(=O)O  inactive

// field: outcome; key: CCN1CCN(c2cc3c(cc2F)c(=O)c(C(=O)O)cn3C2CC2)CC1 ; value = inactive

// field: outcome; key: CCCCCCCC(=O)OCC(O)CO (configuration not stated) ; value = inactive

// field: outcome; key: Cc1c(C)c2c(c(C)c1OC(=O)c1cccnc1)CC[C@@](C)(CCC[C@H](C)CCC[C@H](C)CCCC(C)C)O2 ; value = inactive

// field: outcome; key: C[C@H](CN1CCCC1)C(=O)c1ccc(C(F)(F)F)cc1 ; value = inactive
